Molecular target: T1, GST-Etk kinase domain (human, UniProt P51813 417-675)
T1 construct: Soluble fusion protein expressed in SF21 cells by baculovirus, purified on glutathione beads; also called recombinant Etk; not shown: Glutathione-S-transferase (GST) fusion partner of the pBac vector (Pharmingen)
T1 sequence (P51813 417-675): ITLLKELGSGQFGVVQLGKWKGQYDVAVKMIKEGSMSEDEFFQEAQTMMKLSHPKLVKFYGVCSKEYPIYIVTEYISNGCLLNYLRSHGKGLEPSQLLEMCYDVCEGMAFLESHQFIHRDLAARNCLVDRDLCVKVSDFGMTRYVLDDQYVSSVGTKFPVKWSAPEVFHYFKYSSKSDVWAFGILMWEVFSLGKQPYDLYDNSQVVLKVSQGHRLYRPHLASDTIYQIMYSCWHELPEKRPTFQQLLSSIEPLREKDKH
Experiment: ELISA, purified domain antibody on immobilised GST-Etk, anti-Myc-HRP detection
pEC50: −log10 of the molar value.
pEC50 values for the binders below.
measuredParameter: pEC50

1) L11 soluble single domain antibody (antibody, V domains shown, Tie to L11 rests on list order and numbering; not shown: c-Myc tag (detected with anti-Myc-HRP)) VL: DIQMTQSPSSLSASVGDRVTITCRASQWIFTELAWYQQKPGKAPKLLIYNASYLQSGVPSRFSGSGSGTDFTLTISSLQPEDFATYYCQQTFTPPITFGQGTKVEIKR	8.10
2) L15 soluble single domain antibody (antibody, V domains shown, Single human kappa light chain variable domain, from pDOM5 in E. coli BL21, protein L purified; not shown: c-Myc tag (detected with anti-Myc-HRP)) VL: DIQMTQSPSSLSASVGDRVTITCRASQNIKTKLNWYQQKPGKAPKLLIYRVSTLQSGVPSRFSGSGSGTDFTLTISSLQPEDFATYYCQQTKKRPFTFGQGTKVEIER	~7.70
3) L12 soluble single domain antibody (antibody, V domains shown, Single human kappa light chain variable domain, from pDOM5 in E. coli BL21, protein L purified; not shown: c-Myc tag (detected with anti-Myc-HRP)) VL: DIQMTQSPSSLSASVGDRVTITCRASQWIFDRLHWYQQKPGKAPTLLIYNSSTLQSGVPSRFSGSGSGTDFTLTISSLQPEDFATYYCQQTKSRPSTFGQGTKVEIKR	~7.70
4) L5 soluble single domain antibody (antibody, V domains shown, Single human kappa light chain variable domain (domain antibody), expressed from pDOM5 in E. coli BL21, purified on protein L, about 15 kDa; the tie to L5 rests on the order of the list and the numbering (CDRs 4, 6, 8 follow 2); not shown: c-Myc tag (detected with anti-Myc-HRP)) VL: DIQMTQSPSSLSASVGDRVTITCRASQGIKMKLNWYQQKPGKAPKLLIYNTSHLQSGVPSRFSGSGSGTDFTLTISSLQPEDFATYYCQQHKTRPDTFGQGTKVEIKR	~7.70
5) L9 soluble single domain antibody (antibody, V domains shown, Single human kappa light chain variable domain, from pDOM5 in E. coli BL21, protein L purified; not shown: c-Myc tag (detected with anti-Myc-HRP)) VL: DIQMTQSPSSLSASVGDRVTITCRASQAIKNKLGWYQQKPGKAPKLLIYKASYLQSGVPSRFSGSGSGTDFTLTISSLQPEDFATYYCQQMKSRPNTFGQGTKVEIKR	8.30
6) L7 soluble single domain antibody (antibody, V domains shown, Single human kappa light chain variable domain, from pDOM5 in E. coli BL21, protein L purified; not shown: c-Myc tag (detected with anti-Myc-HRP)) VL: DIQMTQSPSSLSASVGDRVTITCRASQRIFTRLEWYQQKPGKAPMLLIYNVSHLQSGVPSRFSGSGSGTDFTLTISSLQPEDFATYYCQQTEIIPITFGQGTKVEIKQ	~7.70
